System: Galium (catchweed bedstraw, Galium aparine)
Experiment: Test C preemergence
Type: in vivo
Settings: 250 g ai/ha, scale 0 to 100, 0 no effect, 100 complete control
# Plant response rating, Galium values compiled below
OBSERVED PROPERTY: Plant response rating, Galium

1. Cc1ccc(C2CN(C)C(=O)C2C(=O)Nc2cccc(F)c2F)cc1F (stereo not shown): 95
2. Cc1ccc(C2CN(C)C(=O)C2C(=O)Nc2cccc(F)c2F)cc1 (stereo not shown): 90
3. CN1CC(c2ccc(F)c(C(F)(F)F)c2)C(C(=O)Nc2cccc(F)c2F)C1=O (stereo not shown): 90
4. O=C1NCC(c2cc(F)cc(Cl)c2)C1C(=O)Nc1cccc(F)c1F (stereo not shown): 85
5. CN1CC(c2ccc(C(F)(F)F)c(F)c2)C(C(=O)Nc2ccccc2S(C)(=O)=O)C1=O (stereo not shown): 90
6. CN1CC(c2ccc(C(F)(F)F)cc2)C(C(=S)Nc2ccccc2F)C1=O (stereo not shown): 95
7. CN1CC(c2cccc(OC(F)F)c2)C(C(=O)Nc2ccccc2F)C1=O (stereo not shown): 90

----------
Tested on: ryegrass, Italian (Italian ryegrass, Lolium multiflorum)
Assay: Test A postemergence
Assay type: in vivo
Settings: 500 g ai/ha, postemergence; visual injury, 0 to 100 scale (0 no effect, 100 complete control), approx. 10 d
OBSERVED PROPERTY: Plant response rating, Ryegrass, Italian

1) Cc1ccc(C2CNC(=O)C2C(=O)Nc2ccccc2F)cc1C(F)(F)F (racemic): 20
2) NS(=O)(=O)c1ccccc1NC(=O)C1C(=O)NCC1c1cccc(C(F)(F)F)c1 (centres unmarked): 20
3) CC(C)Oc1cccc(C2CN(C)C(=O)C2C(=O)Nc2ccccc2C(F)(F)F)c1 (centres unmarked): 70
4) CC(=O)c1ccccc1NC(=O)C1C(=O)NCC1c1cccc(C(F)(F)F)c1 (racemic): 0
5) O=C1NCC(c2cccc(OC(F)(F)C(F)F)c2)C1C(=O)Nc1ccccc1Cl (racemic): 30

----------
Tested on: ivy-leaved morning glory (Ipomoea hederacea)
Assay: Test G Pre-Emergence Protocol
Assay type: in vivo
Conditions: Ipomoea, pre-emergence, 312 h, 250 g ai/ha, evaluated after 13 days, read-out: Morningglory, Ivy-leaved damage rating (100=total damage to plant; 0=no damage to plant)
Let's look at some compounds and their measured pest or weed control at 250 g/ha.
OBSERVED PROPERTY: pest or weed control at 250 g/ha (%)

1. Cc1ccc([C@H]2CN(C)C(=O)[C@@H]2C(=O)Nc2ccccc2F)cc1Cl (racemic) [Compound 1420]: 0
2. CN1C[C@@H](c2ccc(C(F)(F)F)cc2)[C@H](C(=O)Nc2ccnc(C(F)(F)F)c2)C1=O (racemic) [Compound 1638]: 0
3. Cc1cccc(NC(=O)[C@@H]2C(=O)N(C)C[C@H]2c2ccc(C(F)(F)F)cc2)c1[N+](=O)[O-] (racemic) [Compound 1636]: 0
4. CN1C[C@@H](c2ccc(C(F)(F)F)cc2)[C@H](C(=O)Nc2ccc(Cl)nn2)C1=O (racemic) [Compound 1561]: 20
5. CN1C[C@@H](c2ccc(C(F)(F)F)cc2)[C@H](C(=O)Nc2cccc(Cl)c2C#N)C1=O (racemic) [Compound 1645]: 0
6. COC(=O)c1cc([C@H]2CN(C)C(=O)[C@@H]2C(=O)Nc2cccc(F)c2F)ccc1F (racemic) [Compound 1678]: 0
7. CN1C[C@H](c2ccc(C(F)(F)F)cc2)[C@@H](C(=O)Nc2cccnc2S(C)(=O)=O)C1=O (racemic) [Compound 1789]: 0
8. Cc1cc([C@H]2CN(C)C(=O)[C@@H]2C(=O)Nc2cccc(F)c2F)cnn1 (racemic) [Compound 1662]: 0
9. CN1C[C@H](c2cccc(C#N)c2)[C@@H](C(=O)Nc2ccccc2F)C1=O (racemic) [Compound 1471]: 20
10. Cc1ccc([C@H]2CN(C)C(=O)[C@@H]2C(=O)Nc2cccnc2F)cc1 [Compound 1398]: 80
11. CN1C[C@@H](c2ccc(C(F)(F)F)cc2)[C@H](C(=O)Nc2ccnc(F)c2)C1=O (racemic) [Compound 1529]: 0
12. C=C(C)c1ccccc1NC(=O)[C@H]1C(=O)N(C)C[C@@H]1c1ccc(C(F)(F)F)cc1 (racemic) [Compound 1449]: 0
13. CON1C[C@@H](c2cccc(C(F)(F)F)c2)[C@H](C(=O)Nc2cccc(F)c2F)C1=O (racemic) [Compound 1763]: 20
14. Cc1cc([C@H]2CN(C)C(=O)[C@@H]2C(=O)Nc2ccc(F)c(F)c2F)cnn1 (racemic) [Compound 1663]: 0

----------
System: Kochia (Kochia scoparia)
Assay: Test A preemergence
Format: in vivo
Conditions: Bassia scoparia, pre-emergence, 240 h, 125 g ai/ha, preemergence; visual rating after approx. 10 d; 0 to 100 scale where 0 is no effect and 100 is complete control; read-out: Plant response rating, Kochia
Answer 0 (no) if pest or weed control at 125 g/ha is under 50%, and 1 (yes) if it is 50% or more.

1) Cc1cc([C@H]2CNC(=O)[C@@H]2C(=O)Nc2ccccc2F)ccc1F [Compound 717]: 0 (no)
2) CC(F)(F)c1cccc([C@H]2CNC(=O)[C@@H]2C(=O)Nc2cccc(F)c2F)c1 [Compound 779]: 1 (yes)
3) Cc1cc([C@H]2CNC(=O)[C@@H]2C(=O)Nc2cccc(F)c2F)ccc1Cl [Compound 790]: 1 (yes)
4) CN1C[C@H](c2ccc3c(c2)CCC3)[C@@H](C(=O)Nc2ccccc2S(C)(=O)=O)C1=O [Compound 744]: 1 (yes)
5) C=CCN1C[C@H](c2ccc(OC)c(F)c2)[C@@H](C(=O)Nc2ccccc2S(C)(=O)=O)C1=O [Compound 724]: 0 (no)
6) Cc1cc([C@H]2CN(C)C(=O)[C@@H]2C(=O)Nc2ccc(F)c(F)c2F)ccc1F [Compound 719]: 1 (yes)
7) CN1C[C@H](c2ccc(C(F)F)cc2)[C@@H](C(=O)Nc2ccccc2F)C1=O [Compound 803]: 1 (yes)
8) CSc1ccccc1NC(=O)[C@H]1C(=S)NC[C@@H]1c1ccc(C)c(C)c1 [Compound 766]: 0 (no)
9) C/C=C/C1CNC(=O)C1C(=O)Nc1cccc(F)c1F (stereo not shown) [Compound 793]: 0 (no)
10) Cc1cc(F)cc([C@H]2CN(C)C(=O)[C@@H]2C(=O)Nc2ccc(F)c(F)c2F)c1 [Compound 801]: 1 (yes)
11) CSc1ccccc1NC(=O)[C@H]1C(=O)N(C)C[C@@H]1c1cc(C)c(C)c(C)c1 [Compound 798]: 0 (no)

----------
System: corn (Zea mays)
Assay: Test A postemergence
Assay type: in vivo
Conditions: Zea mays, post-emergence, 240 h, 125 g ai/ha, postemergence; visual injury after approximately 10 d; 0 to 100 scale (0 no effect, 100 complete control)
OBSERVED PROPERTY: Corn plant response rating (crop injury, 0 = no effect, 100 = complete kill) at 125 g/ha

1. CN1C[C@H](c2ccc(C(F)(F)F)cc2)[C@@H](C(=O)Nc2ccccc2C(F)(F)F)C1=O: 60%
2. Cc1cc([C@H]2CNC(=O)[C@@H]2C(=O)Nc2ccccc2F)ccc1Cl: 20%
3. CN1C[C@H](c2cc(F)cc(F)c2)[C@@H](C(=O)Nc2ncccc2F)C1=O: 0%

----------
Test system: ragweed (common ragweed, Ambrosia elatior)
Assay: Test A preemergence
Assay type: in vivo
Conditions: Ambrosia artemisiifolia, pre-emergence, 240 h, 125 g ai/ha, preemergence; visual rating after approx. 10 d; 0 to 100 scale where 0 is no effect and 100 is complete control; read-out: Plant response rating, Ragweed
OBSERVED PROPERTY: pest or weed control at 125 g/ha (%)

1. CN1CC[C@@H](c2cccc(C(F)(F)F)c2)[C@H](C(=O)Nc2ccccc2F)C1=O: 0
2. CN1CC[C@H](c2cccc(OC(F)(F)F)c2)[C@@H](C(=O)Nc2cccc(F)c2F)C1=O: 0
3. Cc1cc([C@H]2CNC(=O)[C@@H]2C(=O)Nc2ccccc2F)ccc1Cl: 0
4. Cc1cc([C@H]2CNC(=O)[C@@H]2C(=O)Nc2cccc(F)c2F)ccc1Cl: 20
5. C=CCN1C[C@H](c2ccc(OC)c(F)c2)[C@@H](C(=O)Nc2ccccc2S(C)(=O)=O)C1=O: 0
6. CSc1ccccc1NC(=O)[C@H]1C(=O)N(C)C[C@@H]1c1ccc(C)c(C)c1: 70
7. CSc1ccccc1NC(=O)[C@H]1C(=O)N(C)C[C@@H]1c1cc(C)c(C)c(C)c1: 0
8. Cc1cc([C@H]2CNC(=O)[C@@H]2C(=O)Nc2ccc(F)cc2F)ccc1F: 0
9. CN1C[C@H](c2cc(F)cc(F)c2)[C@@H](C(=O)Nc2ccccc2S(C)(=O)=O)C1=O: 50
10. COc1cc([C@H]2CN(C)C(=O)[C@@H]2C(=O)Nc2ccccc2F)ccc1C(F)(F)F: 0
11. C/C=C/C1CNC(=O)C1C(=O)Nc1cccc(F)c1F (centres unmarked): 0
12. CN1C[C@H](c2ccc(C(F)(F)F)cc2)[C@@H](C(=O)Nc2ccc(F)c(F)c2F)C1=O: 80
13. CN1CC[C@H](c2cccc(OC(F)(F)F)c2)[C@@H](C(=O)Nc2cccc(Cl)c2F)C1=O: 0
14. CN1C[C@H](c2ccc3c(c2)CCC3)[C@@H](C(=O)Nc2ccccc2S(C)(=O)=O)C1=O: 0
